System: MS2 coat protein
Test: apparent KD of MS2 coat protein, switch OFF state (with FMN for OFF switches, without FMN for ON switches); designed switch direction (-1 OFF switch, 1 ON switch): -1; higher = weaker reporter binding
Details: FMN input: 0 or 200 uM; Eterna round: R93 (includes R88 designs)
endpointName: apparent KD of MS2 coat protein (nM)

>  <seqString>
ACAAAUGUAGGAUAUACAUGAGGAUCACCCAUGUGGCACAAACAGCAAACAAGACAAAGUAGAAGGACAACGAC [JR_Exc003-Sub901]

>  <targetSystem>
MS2 coat protein

>  <endpointName>
apparent KD of MS2 coat protein

>  <valueObserved>
28.4

$$$$
>  <seqString>
AAAAAACAUGAGGAUCACCCAUGUAAGGAUAUGCUAAAAAACGCAAAAAAAGCGAAUAGCAGAAGGUACAAAAA [66%, Wbt, 29]

>  <targetSystem>
MS2 coat protein

>  <endpointName>
apparent KD of MS2 coat protein

>  <valueObserved>
35.9

$$$$
>  <seqString>
ACCUAGUCAGGAUAUACAAACAUGUCAAAAGACGUGAAAAAACAUGAGGAUCACCCAUGUAGAAGGGACUAGGA [Mat - Exclusion 2 - JL mod - D22]

>  <targetSystem>
MS2 coat protein

>  <endpointName>
apparent KD of MS2 coat protein

>  <valueObserved>
19.7

$$$$

Where do these numbers come from? They come from the supplement of paper PMC9170038.
